FYI, the data here is from patent US11731976B2.

biological target: human NaV1.6 (hNaV1.6) (Homo sapiens); construct: expressed in transfected cells; host or cells: HEK-293; assay: Modulation of late sodium current (INaL), PatchXpress electrophysiology, HEK-293 cells expressing hNaV1.6; format: cell-based; conditions: HEK293, late current evoked by 300 nM ATX-II, read-out: NaV 1.6 Assay Data: percent inhibition of INaL at hNaV1.6
Sequence (Q9UQD0 whole entry): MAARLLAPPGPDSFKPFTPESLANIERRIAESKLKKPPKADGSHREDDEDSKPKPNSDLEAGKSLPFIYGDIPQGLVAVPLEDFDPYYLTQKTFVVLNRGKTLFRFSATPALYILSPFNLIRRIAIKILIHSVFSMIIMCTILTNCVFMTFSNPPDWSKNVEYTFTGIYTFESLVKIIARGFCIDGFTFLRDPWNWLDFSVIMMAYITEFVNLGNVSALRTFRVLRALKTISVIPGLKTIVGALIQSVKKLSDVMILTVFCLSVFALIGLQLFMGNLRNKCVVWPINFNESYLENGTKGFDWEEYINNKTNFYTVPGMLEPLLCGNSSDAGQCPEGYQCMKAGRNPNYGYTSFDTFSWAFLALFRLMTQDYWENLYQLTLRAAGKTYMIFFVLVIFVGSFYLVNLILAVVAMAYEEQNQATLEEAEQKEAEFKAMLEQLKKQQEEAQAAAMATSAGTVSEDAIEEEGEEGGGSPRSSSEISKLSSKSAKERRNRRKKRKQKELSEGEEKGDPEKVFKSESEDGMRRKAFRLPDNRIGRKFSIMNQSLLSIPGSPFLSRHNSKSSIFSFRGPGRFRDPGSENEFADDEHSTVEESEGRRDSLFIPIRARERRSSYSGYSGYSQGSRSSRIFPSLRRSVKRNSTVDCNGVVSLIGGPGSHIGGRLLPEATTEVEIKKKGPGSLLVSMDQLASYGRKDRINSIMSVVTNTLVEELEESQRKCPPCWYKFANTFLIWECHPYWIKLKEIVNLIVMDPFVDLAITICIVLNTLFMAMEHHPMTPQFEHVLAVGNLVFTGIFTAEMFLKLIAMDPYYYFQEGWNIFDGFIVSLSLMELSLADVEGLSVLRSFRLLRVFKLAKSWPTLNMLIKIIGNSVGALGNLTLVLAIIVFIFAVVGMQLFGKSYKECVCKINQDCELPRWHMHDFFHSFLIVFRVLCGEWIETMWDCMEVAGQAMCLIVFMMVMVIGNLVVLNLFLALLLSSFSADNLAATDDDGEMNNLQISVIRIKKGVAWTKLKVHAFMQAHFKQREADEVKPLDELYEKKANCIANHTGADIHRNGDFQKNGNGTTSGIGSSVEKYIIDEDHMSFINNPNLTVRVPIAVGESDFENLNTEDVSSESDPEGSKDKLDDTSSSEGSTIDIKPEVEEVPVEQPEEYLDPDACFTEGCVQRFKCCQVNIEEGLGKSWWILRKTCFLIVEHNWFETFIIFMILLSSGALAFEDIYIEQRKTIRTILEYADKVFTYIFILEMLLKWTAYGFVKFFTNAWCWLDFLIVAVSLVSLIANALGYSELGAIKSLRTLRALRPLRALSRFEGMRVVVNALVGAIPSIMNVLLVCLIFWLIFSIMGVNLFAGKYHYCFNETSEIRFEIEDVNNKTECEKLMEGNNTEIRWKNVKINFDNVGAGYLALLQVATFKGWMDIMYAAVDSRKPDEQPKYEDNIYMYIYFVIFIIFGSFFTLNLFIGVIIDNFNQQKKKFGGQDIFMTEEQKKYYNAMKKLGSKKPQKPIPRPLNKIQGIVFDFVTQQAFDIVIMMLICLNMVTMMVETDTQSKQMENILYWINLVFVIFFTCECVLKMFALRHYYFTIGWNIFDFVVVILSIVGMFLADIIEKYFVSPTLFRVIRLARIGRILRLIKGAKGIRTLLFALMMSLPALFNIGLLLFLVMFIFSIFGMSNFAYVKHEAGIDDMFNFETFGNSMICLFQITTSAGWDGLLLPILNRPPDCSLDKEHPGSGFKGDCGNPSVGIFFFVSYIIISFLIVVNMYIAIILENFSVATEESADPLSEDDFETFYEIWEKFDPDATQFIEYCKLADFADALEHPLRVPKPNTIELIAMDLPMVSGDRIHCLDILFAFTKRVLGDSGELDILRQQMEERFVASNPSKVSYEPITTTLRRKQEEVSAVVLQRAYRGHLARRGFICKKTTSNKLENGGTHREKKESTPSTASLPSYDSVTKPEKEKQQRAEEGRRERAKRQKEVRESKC
# inhibition at 1 µM per record follows

{"MOLECULE": "C[C@@H](Oc1ncc(-c2ccc3nnc(C(F)(F)OCC4CC4)n3c2)cc1F)C(F)(F)F [Compound 25]", "inhibition at 1 µM": "> 70%"}
{"MOLECULE": "COCc1nnc2ccc(-c3cnc(O[C@@H](C)C(F)(F)F)c(F)c3)cn12 [Compound 43]", "inhibition at 1 µM": "30 to 70%"}
{"MOLECULE": "COC(F)(F)c1nnc2cnc(-c3cnc(O[C@@H](C)C(F)(F)F)c(F)c3)cn12 [Compound 6B]", "inhibition at 1 µM": "> 70%"}
{"MOLECULE": "COC(F)(F)c1nnc2ccc(-c3cnc(O[C@@H](C)C(F)(F)F)c(F)c3)cn12 [Compound 7]", "inhibition at 1 µM": "> 70%"}
{"MOLECULE": "CC(C)COC(F)(F)c1nnc2ccc(-c3cnc(O[C@@H](C)C(F)(F)F)c(F)c3)nn12 [Compound 47]", "inhibition at 1 µM": "> 70%"}
{"MOLECULE": "C[C@H](Oc1ncc(-c2ccc3nnc(C(F)(F)OCC4CC4)n3c2)cc1F)C(F)(F)F [Compound 19]", "inhibition at 1 µM": "> 70%"}
{"MOLECULE": "COC(F)(F)c1nnc2cnc(-c3ccc(OC4CC(F)(F)C4)nc3)cn12 [Compound 73]", "inhibition at 1 µM": "> 70%"}
{"MOLECULE": "C[C@@H](Oc1ncc(-c2cn3c(C(F)(F)OC4CC4)nnc3cn2)cc1F)C(F)(F)F [Compound 51]", "inhibition at 1 µM": "> 70%"}
{"MOLECULE": "COCc1nnc2ccc(-c3cnc(OCC(F)(F)F)c(F)c3)cn12 [Compound 29]", "inhibition at 1 µM": "< 30%"}
{"MOLECULE": "CCOC(F)(F)c1nnc2cnc(-c3cnc(OCc4ccccc4)c(F)c3)cn12 [Compound 64]", "inhibition at 1 µM": "> 70%"}
